Data origin: ChEMBL document CHEMBL1134643

biological target: Nociceptin receptor (Mus musculus); test: Inhibition of [3H]NC-NH2 binding to mouse forebrain membranes; design: species or system Membrane
Sequence (P35377 whole entry): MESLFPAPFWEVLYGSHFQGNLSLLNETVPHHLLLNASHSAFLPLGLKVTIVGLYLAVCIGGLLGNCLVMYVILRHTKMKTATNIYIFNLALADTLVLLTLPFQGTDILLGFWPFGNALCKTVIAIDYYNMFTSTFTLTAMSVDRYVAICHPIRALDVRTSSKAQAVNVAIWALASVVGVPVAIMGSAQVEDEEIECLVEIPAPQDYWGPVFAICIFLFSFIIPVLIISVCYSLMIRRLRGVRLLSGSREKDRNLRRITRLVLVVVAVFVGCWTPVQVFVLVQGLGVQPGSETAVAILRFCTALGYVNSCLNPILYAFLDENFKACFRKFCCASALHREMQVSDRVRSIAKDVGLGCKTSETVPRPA
parameter: pKi
Please keep in mind that pKi is minus log10 of the molar concentration; only the number is needed.

- molecule-smiles: "C[C@H](NC(=O)CNC(=O)[C@@H](NC(=O)[C@H](Cc1ccc(N)cc1)NC(=O)CNC(=O)CNC(=O)[C@@H](N)Cc1ccccc1)[C@@H](C)O)C(=O)N[C@@H](CCCN=C(N)N)C(=O)N[C@@H](CCCCN)C(=O)N[C@@H](CO)C(=O)N[C@@H](C)C(=O)N[C@@H](CCCN=C(N)N)C(=O)N[C@@H](CCCCN)C(N)=O"
  recorded-measurement: 5.75
- molecule-smiles: "C[C@H](NC(=O)CNC(=O)[C@@H](NC(=O)[C@H](Cc1ccc([N+](=O)[O-])cc1)NC(=O)CNC(=O)CNC(=O)[C@@H](N)Cc1ccccc1)[C@@H](C)O)C(=O)N[C@@H](CCCN=C(N)N)C(=O)N[C@@H](CCCCN)C(=O)N[C@@H](CO)C(=O)N[C@@H](C)C(=O)N[C@@H](CCCN=C(N)N)C(=O)N[C@@H](CCCCN)C(N)=O"
  recorded-measurement: 9.52
- molecule-smiles: "COc1ccc(C[C@H](NC(=O)CNC(=O)CNC(=O)[C@@H](N)Cc2ccccc2)C(=O)N[C@H](C(=O)NCC(=O)N[C@@H](C)C(=O)N[C@@H](CCCN=C(N)N)C(=O)N[C@@H](CCCCN)C(=O)N[C@@H](CO)C(=O)N[C@@H](C)C(=O)N[C@@H](CCCN=C(N)N)C(=O)N[C@@H](CCCCN)C(N)=O)[C@@H](C)O)cc1"
  recorded-measurement: 7.05

Look up and report measured pKi for this entry: "C[C@H](NC(=O)CNC(=O)[C@@H](NC(=O)[C@H](Cc1ccc(C#N)cc1)NC(=O)CNC(=O)CNC(=O)[C@@H](N)Cc1ccccc1)[C@@H](C)O)C(=O)N[C@@H](CCCN=C(N)N)C(=O)N[C@@H](CCCCN)C(=O)N[C@@H](CO)C(=O)N[C@@H](C)C(=O)N[C@@H](CCCN=C(N)N)C(=O)N[C@@H](CCCCN)C(N)=O" 9.22

Look up and report measured pKi for this entry: "C[C@H](NC(=O)CNC(=O)[C@@H](NC(=O)[C@H](Cc1ccccc1F)NC(=O)CNC(=O)CNC(=O)[C@@H](N)Cc1ccccc1)[C@@H](C)O)C(=O)N[C@@H](CCCN=C(N)N)C(=O)N[C@@H](CCCCN)C(=O)N[C@@H](CO)C(=O)N[C@@H](C)C(=O)N[C@@H](CCCN=C(N)N)C(=O)N[C@@H](CCCCN)C(N)=O" 8.44

Look up and report measured pKi for this entry: "CC(C)C[C@H](NC(=O)[C@H](CCCCN)NC(=O)[C@H](CCCN=C(N)N)NC(=O)[C@H](C)NC(=O)[C@H](CO)NC(=O)[C@H](CCCCN)NC(=O)[C@H](CCCN=C(N)N)NC(=O)[C@H](C)NC(=O)CNC(=O)[C@@H](NC(=O)[C@H](Cc1ccccc1)NC(=O)CNC(=O)CNC(=O)[C@@H](N)Cc1ccccc1)[C@@H](C)O)C(=O)N[C@@H](C)C(=O)N[C@@H](CC(N)=O)C(=O)N[C@@H](CCC(N)=O)C(=O)O" 8.72

Look up and report measured pKi for this entry: "C[C@H](NC(=O)CNC(=O)[C@@H](NC(=O)[C@H](Cc1ccc(F)cc1)NC(=O)CNC(=O)CNC(=O)[C@@H](N)Cc1ccccc1)[C@@H](C)O)C(=O)N[C@@H](CCCN=C(N)N)C(=O)N[C@@H](CCCCN)C(=O)N[C@@H](CO)C(=O)N[C@@H](C)C(=O)N[C@@H](CCCN=C(N)N)C(=O)N[C@@H](CCCCN)C(N)=O" 9.40
